- Assay Text: CLD_ACTIN_6hr: CellzDirect (CLD) Gene Expression Assay for Baseline Control (Actin) at 6 hours (AID 2283676);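 note: active means increased actin mRNA relative to DMSO vehicle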
Inconclusive results are not listed. Calls of active or inactive are those of the source. Rule for the calls: active = hit-call score of the fitted dose curve at least 0.9, where 1 is the maximum; inconclusive = response in the unintended direction; inactive = score below 0.9.
Value Kind: outcome

Take a look at these entries with their results.
- Compound: "CC1(C)C(C=C(Cl)Cl)C1C(=O)OC(C#N)c1cccc(Oc2ccccc2)c1 (configuration not stated)"
  outcome: "inactive"
- Compound: "COP(=O)(OC)O/C(C)=C/C(=O)N(C)C"
  outcome: "inactive"
- Compound: "CN=C=S"
  outcome: "inactive"
- Compound: "COCc1cnc(C2=NC(C)(C(C)C)C(=O)N2)c(C(=O)O)c1 (configuration not stated)"
  outcome: "inactive"
- Compound: "C=C(C)CN(CC)c1c([N+](=O)[O-])cc(C(F)(F)F)cc1[N+](=O)[O-]"
  outcome: "inactive"
- Compound: "CC(C)NC(=O)N1CC(=O)N(c2cc(Cl)cc(Cl)c2)C1=O"
  outcome: "inactive"

Record summary for CC(C)N1C(=O)c2ccccc2NS1(=O)=O : reported outcome = inactive

Value of outcome reported for the compound CNC(=O)N(C)c1nnc(C(C)(C)C)s1 is inactive

Measured outcome, Nc1c(Cl)c(Cl)nc(C(=O)O)c1Cl : inactive

Query COCC(C)N(C(=O)CCl)c1c(C)csc1C (configuration not stated) yields outcome of inactive

Documented outcome of CNC(=O)Oc1cccc2ccccc12 : inactive

GET /value?item= COC(=O)N(C(=O)N1CO[C@@]2(C(=O)OC)Cc3cc(Cl)ccc3C2=N1)c1ccc(OC(F)(F)F)cc1 &field=outcome returns inactive
